assay overview: In vivo pharmacokinetic study, intravenous
Set-up: species or system female Wistar rats
condition set: female, Wistar, rat, plasma, iv, 10 mg/kg
quantity: MRT inf (h)
Express it in h; write the number only.

Per the records, this molecule ( O=c1c(-c2ccc(O)cc2)coc2cc(O)ccc12 ) has MRT inf equal to 2.97

###

assay overview: In vivo pharmacokinetic study, intravenous
Parameters: species or system female Wistar rats
condition set: female, Wistar, rat, plasma, iv, 10 mg/kg, C max, DZ 10 mg/kg equivalent, n = 6
quantity: Cmax (µg/mL)
Express it in µg/mL; write the number only.

Per the records, this compound ( O=c1c(-c2ccc(O)cc2)coc2cc(O)ccc12 [DZ, daidzein] ) has Cmax equal to 382

###

assay overview: In vivo pharmacokinetic study, intravenous
Design: species or system female Wistar rats
condition set: female, Wistar, rat, plasma, iv, 10 mg/kg, AUC0−∞, DZ 10 mg/kg equivalent, n = 6
quantity: AUC(0-inf) (µg·h/mL)
Express it in µg·h/mL; write the number only.

Per the records, this compound ( O=c1c(-c2ccc(O)cc2)coc2cc(O)ccc12 [DZ, daidzein] ) has AUC(0-inf) equal to 2300

###

assay overview: Blood compatibility study
Type: cell-based
condition set: rat, heparinized whole blood
quantity: hemolysis at 1 h, 1000 µg/mL (%)
Express it in %; write the number only.

Per the records, this compound ( O=c1c(-c2ccc(O)cc2)coc2cc(O)ccc12 ) has hemolysis at 1 h, 1000 µg/mL equal to 0.98

These entries and their values trace back to paper PMC11757988.
